Quick reference for Activity among some molecules
System: Toxoplasma gondii
Experiment: Antiparasitic activity against Toxoplasma gondii infected african green monkey Vero cells at 2 mM assessed as infected cells
Assay type: functional
The answer consists of two parts: a number and, after it, its unit.

# count of solved cases: 3
{"molecule": "Fc1ccccc1/C=N/NC(=S)Nc1ccccc1", "value": "28.13%"}
{"molecule": "CN(C)c1ccc(/C=N/N=C2\\SC(CC(=O)O)C(=O)N2c2ccccc2)cc1 (stereo unspecified)", "value": "0%"}
{"molecule": "COc1cc(/C=N/N=C2\\SC(CC(=O)O)C(=O)N2c2ccccc2)cc(OC)c1OC (stereo unspecified)", "value": "14.33%"}

Please report the recorded Activity for COc1cc(/C=N/NC(=S)Nc2ccccc2)cc(OC)c1OC .
72.04%

# lookup: Activity of S=C(N/N=C/c1ccccc1)Nc1ccccc1
77.82%

Would you kindly share the measured Activity for Cc1ccc(/C=N/NC(=S)Nc2ccccc2)cc1 ?
36.78%

Which Activity is listed for COc1ccc(/C=N/NC(=S)Nc2ccccc2)c(OC)c1 ?
41.44%

Any idea what Activity was measured for CC(C)(C)c1cc(/C=N/NC(=S)Nc2ccccc2)cc(C(C)(C)C)c1O ?
64.07%

* * *

Tested on: Toxoplasma gondii
Test: Antiparasitic activity against Toxoplasma gondii infected african green monkey Vero cells at 0.1 mM assessed as infected cells
Format: functional
metric: Activity (%)
Write it as a number; the unit % goes unstated.

{"molecule": "O=C(O)CC1S/C(=N\\N=C\\c2ccc(Cl)cc2Cl)N(c2ccccc2)C1=O (stereo unspecified)", "metric": "Activity", "value": 63.23}
{"molecule": "COc1ccc(/C=N/N=C2\\SC(CC(=O)O)C(=O)N2c2ccccc2)c(OC)c1 (stereo unspecified)", "metric": "Activity", "value": 66.36}
{"molecule": "COc1cccc(/C=N/N=C2\\SC(CC(=O)O)C(=O)N2c2ccccc2)c1 (stereo unspecified)", "metric": "Activity", "value": 34.16}
{"molecule": "COc1cc(/C=N/NC(=S)Nc2ccccc2)cc(OC)c1OC", "metric": "Activity", "value": 76.37}
{"molecule": "S=C(N/N=C/c1ccc(Cl)c(Cl)c1)Nc1ccccc1", "metric": "Activity", "value": 49.18}
{"molecule": "CN(C)c1ccc(/C=N/N=C2\\SC(CC(=O)O)C(=O)N2c2ccccc2)cc1 (stereo unspecified)", "metric": "Activity", "value": 50.58}

Requested read-out: Activity. Entry: CC(C)(C)c1cc(/C=N/NC(=S)Nc2ccccc2)cc(C(C)(C)C)c1O
63.44

So what does the record say about Activity for S=C(N/N=C/c1ccccc1)Nc1ccccc1 ?
82.5

Any idea what Activity was measured for COc1cc(/C=N/N=C2\SC(CC(=O)O)C(=O)N2c2ccccc2)cc(OC)c1OC (stereo unspecified) ?
55.57

# get_value(readout='Activity', item= S=C(N/N=C/c1ccc(Cl)cc1Cl)Nc1ccccc1 )
49.33

Which measured Activity value corresponds to O=C(O)CC1S/C(=N\N=C\c2cccc(Cl)c2)N(c2ccccc2)C1=O (stereo unspecified) ?
53.74

* * *

The entries below are paired with their reported Activity.
Tested on: Toxoplasma gondii
Experiment: Antiparasitic activity against Toxoplasma gondii infected african green monkey Vero cells at 0.1 mM assessed as infected cells
Assay type: functional
# output: bare number, implied unit %

In the examples that follow, each entry is paired with its recorded Activity.
{"compound": "S=C(N/N=C/c1ccc(Cl)cc1)Nc1ccccc1", "value": 70.01}
{"compound": "Cc1ccc(/C=N/NC(=S)Nc2ccccc2)cc1", "value": 51.08}
{"compound": "Cc1cccc(/C=N/NC(=S)Nc2ccccc2)c1", "value": 66.23}
{"compound": "COc1ccc(/C=N/NC(=S)Nc2ccccc2)cc1", "value": 50.43}
{"compound": "O=C(O)CC1S/C(=N\\N=C\\c2ccc(Cl)cc2)N(c2ccccc2)C1=O (stereo not given)", "value": 68.15}

Fill in: Activity of Nc1ccc(S(=O)(=O)Nc2ncccn2)cc1 is ___
53.84

If you can, please state the reported Activity value of Fc1ccccc1/C=N/NC(=S)Nc1ccccc1 .
91.5

* * *

Tested on: Toxoplasma gondii
Experiment: Antiparasitic activity against Toxoplasma gondii infected african green monkey Vero cells at 5 mM assessed as infected cells
Format: functional
metric: Activity (%)
Supply the numeric figure in %, leaving out any unit text.

{"molecule": "Nc1ccc(S(=O)(=O)Nc2ncccn2)cc1", "measurement-target": "Toxoplasma gondii", "Activity / %": 29.55}
{"molecule": "CC(C)(C)c1cc(/C=N/N=C2\\SC(CC(=O)O)C(=O)N2c2ccccc2)cc(C(C)(C)C)c1O (stereo not given)", "measurement-target": "Toxoplasma gondii", "Activity / %": 0}
{"molecule": "Fc1ccc(/C=N/NC(=S)Nc2ccccc2)cc1", "measurement-target": "Toxoplasma gondii", "Activity / %": 28}
{"molecule": "Cc1ccc(/C=N/N=C2\\SC(CC(=O)O)C(=O)N2c2ccccc2)cc1 (stereo not given)", "measurement-target": "Toxoplasma gondii", "Activity / %": 0}
{"molecule": "COc1ccc(/C=N/N=C2\\SC(CC(=O)O)C(=O)N2c2ccccc2)cc1 (stereo not given)", "measurement-target": "Toxoplasma gondii", "Activity / %": 5.9}

Given the molecule COc1cc(/C=N/N=C2\SC(CC(=O)O)C(=O)N2c2ccccc2)cc(OC)c1OC (stereo not given) , what is its reported Activity?
15.63

Looking for the measured Activity of O=C(O)CC1S/C(=N\N=C\c2ccc(Cl)c(Cl)c2)N(c2ccccc2)C1=O (stereo not given) , can you help?
0

I'd like to know its Activity. The molecule in question is S=C(N/N=C/c1ccc(Cl)cc1Cl)Nc1ccccc1
31.32

I would be grateful if you could share the reported Activity for COc1cc(/C=N/NC(=S)Nc2ccccc2)cc(OC)c1OC .
24.32

Query (molecule): COc1cc(/C=N/N=C2\SC(CC(=O)O)C(=O)N2c2ccccc2)ccc1O (stereo not given) ; field requested: Activity
3.5

* * *

Overview of reported Activity across a group of compounds:
Tested on: Toxoplasma gondii
Test: Antiparasitic activity against Toxoplasma gondii infected african green monkey Vero cells at 2 mM assessed as infected cells
Format: functional
Return type: number; implicit unit %.

Below are worked cases with known answers.
{"compound": "COc1cc(/C=N/N=C2\\SC(CC(=O)O)C(=O)N2c2ccccc2)ccc1O (stereo not drawn)", "units-symbol": "%", "value": 41.96}
{"compound": "COc1cccc(/C=N/N=C2\\SC(CC(=O)O)C(=O)N2c2ccccc2)c1 (stereo not drawn)", "units-symbol": "%", "value": 28.71}

Please look at the following compound next.
What value of measured Activity is listed for S=C(N/N=C/c1ccc(Cl)cc1Cl)Nc1ccccc1 ?
33.28

* * *

Recorded Activity for the following molecules
Test system: Toxoplasma gondii
Test: Antiparasitic activity against Toxoplasma gondii infected african green monkey Vero cells at 0.1 mM assessed as infected cells
Format: functional
API: value field is a number in %; no unit string.

{"molecule": "O=C(O)CC1S/C(=N\\N=C\\c2ccc(F)cc2)N(c2ccccc2)C1=O (stereo not drawn)", "units-symbol": "%", "Activity": 21.7}
{"molecule": "O=C(O)CC1S/C(=N\\N=C\\c2ccc(Cl)c(Cl)c2)N(c2ccccc2)C1=O (stereo not drawn)", "units-symbol": "%", "Activity": 101}
{"molecule": "COc1cc(/C=N/N=C2\\SC(CC(=O)O)C(=O)N2c2ccccc2)ccc1O (stereo not drawn)", "units-symbol": "%", "Activity": 46.02}

# query: Activity of entry Cc1ccc(/C=N/N=C2\SC(CC(=O)O)C(=O)N2c2ccccc2)cc1 (stereo not drawn)
39.2

Query (molecule): S=C(N/N=C/c1cccc(Cl)c1)Nc1ccccc1 ; field requested: Activity
44.52

* * *

Test system: Toxoplasma gondii
Assay: Antiparasitic activity against Toxoplasma gondii infected african green monkey Vero cells at 5 mM assessed as infected cells
Assay type: functional
Measured Activity of individual entries

Example cases with answers are listed next.
{"compound": "O=C(O)CC1S/C(=N\\N=C\\c2cccc(Cl)c2)N(c2ccccc2)C1=O (stereo not given)", "value": "33.5%"}
{"compound": "COc1ccc(/C=N/NC(=S)Nc2ccccc2)cc1", "value": "19%"}
{"compound": "S=C(N/N=C/c1ccc(Cl)c(Cl)c1)Nc1ccccc1", "value": "21.96%"}
{"compound": "NC(=O)NO [HYDROXYUREA]", "value": "10.4%"}

Now turn to the next compound.
Return Activity measured with Toxoplasma gondii given this compound: O=C(O)CC1S/C(=N\N=C\c2ccccc2F)N(c2ccccc2)C1=O (stereo not given)
0%

* * *

System: Toxoplasma gondii
Test: Antiparasitic activity against Toxoplasma gondii infected african green monkey Vero cells at 0.1 mM assessed as infected cells
Format: functional
Recorded Activity, one value per entry.
Numeric answer only, unit % assumed.

{"molecule": "COc1ccc(/C=N/NC(=S)Nc2ccccc2)c(OC)c1", "units-symbol": "%", "Activity": 73}
{"molecule": "Fc1ccc(/C=N/NC(=S)Nc2ccccc2)cc1", "units-symbol": "%", "Activity": 46.59}

Now for another entry.
Activity of O=C(O)CC1S/C(=N\N=C\c2ccccc2)N(c2ccccc2)C1=O (stereo not drawn) on Toxoplasma gondii?
69.7
